Data provenance is paper PMC9352680.

Target: T1, PUF4 RNA-binding domain (Saccharomyces cerevisiae, UniProt P25339 537-888)
T1 sequence: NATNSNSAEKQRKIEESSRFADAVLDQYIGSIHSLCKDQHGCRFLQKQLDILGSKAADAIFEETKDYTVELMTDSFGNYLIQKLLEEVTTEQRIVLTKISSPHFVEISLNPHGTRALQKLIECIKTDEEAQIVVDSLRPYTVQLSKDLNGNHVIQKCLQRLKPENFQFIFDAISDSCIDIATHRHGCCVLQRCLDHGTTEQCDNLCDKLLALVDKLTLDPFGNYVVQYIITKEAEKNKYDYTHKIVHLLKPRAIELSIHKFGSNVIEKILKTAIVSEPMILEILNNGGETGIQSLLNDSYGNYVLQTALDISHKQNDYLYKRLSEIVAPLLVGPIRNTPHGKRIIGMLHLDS
Assay: Mg; RNA-MaP; 20 mM Na-HEPES pH 7.4, 30 mM KOAc, 0.75 mM MgCl2, 0.1% Tween-20, 5% glycerol, 0.1 mg/mL BSA, 2 mM DTT; 25 C; 0.0125-409.6 nM protein
Conditions: tags: N-His6-TEV cleaved; C-SNAP kept, Cy3B-labelled; label: tethered on chip by stalled RNA polymerase
Rule: Kd below 80 nM gives Satisfied. Equal to or above 80 nM gives Not satisfied.

Binder: Ic_S2_P5E.1_K5.1_C5.1_H5.1_A5.1_[T5G]_[T6C]_F5.1_[T8A]_[T9A]_[A10C]_T5.1 (ssRNA) RNA: UUUGAUUAAUAUGAUAUCGUUCUUUCUUGUAGCAAACUUCUUUCUCGAUAUCAUAUUAAUCUUU
Class: Not satisfied
--
Binder: Id_ii_S2_P4E.4_K4.3_C4.2_[T-1C]_H4.3_A4.1_F4.1_T4.2_[G10C]_[T11C] (ssRNA) RNA: UUUGAUUAAUAUGAUAUCGUUCUUUCUCCACACUAUUACCUUCUUUCUCGAUAUCAUAUUAAUCUUU
Class: Not satisfied
--
Binder: Id_ii_S2_P4E.3_K4.2_C4.2_[C-2G]_H4.2_A4.1_F4.1_T4.2_[G10T] (ssRNA) RNA: UUUGAUUAAUAUGAUAUCGUUCUUUCUGUUAUAUAUUAUUUUCUUUCUCGAUAUCAUAUUAAUCUUU
Class: Satisfied
--
Binder: ACAAACCCUAUAUAUUAAUACAAAC (ssRNA) [Id_ii_S3_P4E.3_K4.2_C4.2_[T-1C]_H4.2_A4.1_F4.1_T4.2_[G10A]]
Class: Satisfied
--
Binder: Id_ii_S4_P3E.3_K3.2_C3.2_H3.2_A3.1_F3.1_T3.2_[T9A]_[A10C] (ssRNA) RNA: UUUGACAACUGAUCGUUCUUUCUCUUAUAUAUAACUUCUUUCUCGAUCAGUUGUCUUU
Class: Not satisfied
--
Binder: Ic_S2_P4E.1_K4.1_C4.1_H4.1_A4.1_[T5C]_[A6C]_F4.1_[A9G]_T4.1 (ssRNA) RNA: UUUGAUUAAUAUGAUAUCGUUCUUUCUUGUACCUUGUUCUUUCUCGAUAUCAUAUUAAUCUUU
Class: Satisfied
--
Binder: UCUCUUCGACACUAUUAACUCUCUU (ssRNA) [Id_ii_S1_P4E.4_K4.3_C4.2_[T-1G]_H4.3_A4.1_F4.1_T4.2_[G10A]_[T11C]]
Class: Not satisfied
--
Binder: Ic_S4_P5E.1_K5.1_C5.1_H5.1_A5.1_[T5G]_[T6C]_[A7T]_F5.1_[T8C]_[T9G]_[A10T]_T5.1 (ssRNA) RNA: UUUGACAACUGAUCGUUCUUUCUUGUAGCUCGUUUCUUUCUCGAUCAGUUGUCUUU
Class: Not satisfied
--
Binder: ACAAACAGUAGAUAACAAAC (ssRNA) [Ib_S3_P3E.1_K3.1_C3.1_H3.1_[T1A]_A3.1_[T5G]_F3.1_T3.1]
Class: Not satisfied
--
Binder: UCUCUUUGUAUCCCAUUAUCUCUU (ssRNA) [Ie_S1_P4E.1_K4.1_C4.1_H4.1_A4.1_[+5CCC]_F4.1_T4.1]
Class: Satisfied
--
Binder: Ic_S4_P4E.1_K4.1_C4.1_H4.1_A4.1_[T5A]_[A6C]_[T7A]_F4.1_[A9C]_T4.1 (ssRNA) RNA: UUUGACAACUGAUCGUUCUUUCUUGUAACAUCUUCUUUCUCGAUCAGUUGUCUUU
Class: Satisfied
--
Binder: Ic_S2_P5E.1_K5.1_C5.1_H5.1_A5.1_[T6C]_[A7G]_F5.1_[T8G]_T5.1 (ssRNA) RNA: UUUGAUUAAUAUGAUAUCGUUCUUUCUUGUAUCGGUAUUCUUUCUCGAUAUCAUAUUAAUCUUU
Class: Satisfied
